Below are Ki values recorded for UniProt P14416.
Sequence (P14416 whole entry): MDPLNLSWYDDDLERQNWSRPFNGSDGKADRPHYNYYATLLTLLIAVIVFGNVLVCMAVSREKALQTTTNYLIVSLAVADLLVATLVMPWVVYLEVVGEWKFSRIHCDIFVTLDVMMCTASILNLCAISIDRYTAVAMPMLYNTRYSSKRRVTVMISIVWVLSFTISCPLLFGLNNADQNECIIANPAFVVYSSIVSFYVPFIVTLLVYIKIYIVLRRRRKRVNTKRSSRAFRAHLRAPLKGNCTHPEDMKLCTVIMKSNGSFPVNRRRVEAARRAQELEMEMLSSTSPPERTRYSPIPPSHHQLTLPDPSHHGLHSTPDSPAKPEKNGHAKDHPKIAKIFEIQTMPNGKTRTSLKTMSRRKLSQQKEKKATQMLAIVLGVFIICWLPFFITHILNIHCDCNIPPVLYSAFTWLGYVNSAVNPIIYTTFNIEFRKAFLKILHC
Metric: Ki (nM)

- Smi: "CC(C)c1ccccc1OCCN1CCC(N(C)S(=O)(=O)c2ccccc2)CC1"
  Unit Text: "nM"
  Recorded Value: 60
- Smi: "CC(C)c1ccccc1OCCN1CCC(N(C)S(=O)(=O)c2ccc(F)cc2)CC1"
  Unit Text: "nM"
  Recorded Value: 50
- Smi: "Cn1cc(S(=O)(=O)N(CC2CC2)C2CCN(CCOc3ccccc3C(C)(C)C)CC2)cn1"
  Unit Text: "nM"
  Recorded Value: 230
- Smi: "O=S(=O)(c1ccc(F)cc1)N(CC1CC1)C1CCN(CCOc2ccccc2-c2ccccc2)CC1"
  Unit Text: "nM"
  Recorded Value: 37
- Smi: "CN(C1CCN(CCOc2ccccc2-c2ccccc2)CC1)S(=O)(=O)c1ccc(F)cc1"
  Unit Text: "nM"
  Recorded Value: 54
- Smi: "CN(C1CCN(CCOc2ccccc2C(C)(C)C)CC1)S(=O)(=O)c1cnn(C)c1"
  Unit Text: "nM"
  Recorded Value: 280
- Smi: "CC(C)c1ccccc1OCCN1CCC(N(CC2CC2)S(=O)(=O)c2cnn(C)c2)CC1"
  Unit Text: "nM"
  Recorded Value: 18
- Smi: "CN(C1CCN(CCOc2ccccc2-c2ccccc2)CC1)S(=O)(=O)c1cnn(C)c1"
  Unit Text: "nM"
  Recorded Value: 35
- Smi: "CC(C)c1ccccc1OCCN1CCC(N(CC2CC2)S(=O)(=O)c2ccc(F)cc2)CC1"
  Unit Text: "nM"
  Recorded Value: 20

----------
Assay: Metabolic stability in mouse liver microsomes assessed as retention time of compound at 20 uM at pH 7.4 incubated for 15 mins by UPLC/MS analysis in presence of NADPH
Assay type: ADME
Conditions: pH 7.4, 0.25 h
# note: boundary value 5 min maps to 0 (no); Retention_time below it maps to 1 (yes)

- Smi: "Cn1cc(S(=O)(=O)NC2CCN(CCOc3ccccc3C(C)(C)C)CC2)cn1"
  Label Class: "1 (yes)"
- Smi: "CN(C1CCN(CCOc2ccccc2C(C)(C)C)CC1)S(=O)(=O)c1cnn(C)c1"
  Label Class: "0 (no)"
- Smi: "Cn1cc(S(=O)(=O)N(CC2CC2)C2CCN(CCOc3ccccc3C(C)(C)C)CC2)cn1"
  Label Class: "0 (no)"
- Smi: "Cn1cc(S(=O)(=O)NC2CCN(CCOc3ccccc3-c3ccccc3)CC2)cn1"
  Label Class: "1 (yes)"
- Smi: "Cn1cc(S(=O)(=O)N(CC2CC2)C2CCN(CCOc3ccccc3-c3ccccc3)CC2)cn1"
  Label Class: "0 (no)"

----------
Biological target: 5-hydroxytryptamine receptor 1A (Homo sapiens)
Sequence (P08908 whole entry): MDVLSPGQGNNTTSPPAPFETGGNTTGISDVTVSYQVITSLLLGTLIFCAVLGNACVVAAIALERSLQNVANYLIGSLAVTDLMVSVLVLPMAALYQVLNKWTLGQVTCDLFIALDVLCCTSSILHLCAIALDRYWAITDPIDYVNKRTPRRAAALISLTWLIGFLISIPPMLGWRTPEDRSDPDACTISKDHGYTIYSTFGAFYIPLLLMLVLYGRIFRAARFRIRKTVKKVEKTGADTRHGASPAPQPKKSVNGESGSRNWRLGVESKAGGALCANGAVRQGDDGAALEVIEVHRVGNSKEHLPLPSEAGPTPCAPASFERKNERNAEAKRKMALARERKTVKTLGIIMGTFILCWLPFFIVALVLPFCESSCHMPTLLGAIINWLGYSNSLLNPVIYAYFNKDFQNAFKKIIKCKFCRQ
Attribute: Ki

- Smi: "CC(C)c1ccccc1OCCN1CCC(N(C)S(=O)(=O)c2cccc(F)c2)CC1"
  Subject Of Test: "5-hydroxytryptamine receptor 1A (Homo sapiens)"
  Ki / nM: 190
- Smi: "Cn1cc(S(=O)(=O)N(CC2CC2)C2CCN(CCOc3ccccc3-c3ccccc3)CC2)cn1"
  Subject Of Test: "5-hydroxytryptamine receptor 1A (Homo sapiens)"
  Ki / nM: 159
- Smi: "CN(C1CCN(CCOc2ccccc2-c2ccccc2)CC1)S(=O)(=O)c1ccc(F)cc1"
  Subject Of Test: "5-hydroxytryptamine receptor 1A (Homo sapiens)"
  Ki / nM: 30
- Smi: "CC(C)(C)c1ccccc1OCCN1CCC(N(CC2CC2)S(=O)(=O)c2ccc(F)cc2)CC1"
  Subject Of Test: "5-hydroxytryptamine receptor 1A (Homo sapiens)"
  Ki / nM: 14000

----------
Attribute: Ki
Biological target: 5-hydroxytryptamine receptor 2A (Homo sapiens)

- Smi: "CN(C1CCN(CCOc2ccccc2C(C)(C)C)CC1)S(=O)(=O)c1cccc(F)c1"
  Ki (nM): 1930
- Smi: "Cn1cc(S(=O)(=O)N(CC2CC2)C2CCN(CCOc3ccccc3-c3ccccc3)CC2)cn1"
  Ki (nM): 30
- Smi: "CC(C)(C)c1ccccc1OCCN1CCC(N(CC2CC2)S(=O)(=O)c2ccc(F)cc2)CC1"
  Ki (nM): 1330
- Smi: "CN(C1CCN(CCOc2ccccc2-c2ccccc2)CC1)S(=O)(=O)c1ccccc1"
  Ki (nM): 42

----------
Biological target: 5-hydroxytryptamine receptor 2A (Homo sapiens, UniProt P28223)
Sequence (P28223 whole entry): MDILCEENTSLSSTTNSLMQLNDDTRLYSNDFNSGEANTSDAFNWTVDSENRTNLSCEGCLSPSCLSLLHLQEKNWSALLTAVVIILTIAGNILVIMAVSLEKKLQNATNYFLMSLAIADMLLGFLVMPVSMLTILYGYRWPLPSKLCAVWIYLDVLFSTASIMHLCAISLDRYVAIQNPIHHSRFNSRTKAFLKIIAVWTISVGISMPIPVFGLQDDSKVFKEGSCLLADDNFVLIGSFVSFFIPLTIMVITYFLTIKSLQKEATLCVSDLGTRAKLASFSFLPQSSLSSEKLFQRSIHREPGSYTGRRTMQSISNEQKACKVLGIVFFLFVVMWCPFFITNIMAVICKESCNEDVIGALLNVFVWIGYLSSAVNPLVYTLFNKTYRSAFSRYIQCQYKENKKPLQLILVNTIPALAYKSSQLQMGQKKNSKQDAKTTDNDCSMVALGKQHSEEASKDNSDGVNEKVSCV
pKi: −log10 of the molar value.
Attribute: pKi

- Smi: "CN(C1CCN(CCOc2ccccc2-c2ccccc2)CC1)S(=O)(=O)c1ccc(F)cc1"
  pKi: 7.16
- Smi: "CC(C)c1ccccc1OCCN1CCC(N(C)S(=O)(=O)c2ccccc2)CC1"
  pKi: 6.58
- Smi: "CN(C1CCN(CCOc2ccccc2C(C)(C)C)CC1)S(=O)(=O)c1ccccc1"
  pKi: 5.90
- Smi: "CC(C)c1ccccc1OCCN1CCC(N(C)S(=O)(=O)c2cccc(F)c2)CC1"
  pKi: 6.64
